Target: Or13a (Drosophila melanogaster)
Construct: wild-type Or13a stably expressed in Sf21 cells (clone Or13a-WT-C4); with Orco
Sequence (Q9VXL0 whole entry): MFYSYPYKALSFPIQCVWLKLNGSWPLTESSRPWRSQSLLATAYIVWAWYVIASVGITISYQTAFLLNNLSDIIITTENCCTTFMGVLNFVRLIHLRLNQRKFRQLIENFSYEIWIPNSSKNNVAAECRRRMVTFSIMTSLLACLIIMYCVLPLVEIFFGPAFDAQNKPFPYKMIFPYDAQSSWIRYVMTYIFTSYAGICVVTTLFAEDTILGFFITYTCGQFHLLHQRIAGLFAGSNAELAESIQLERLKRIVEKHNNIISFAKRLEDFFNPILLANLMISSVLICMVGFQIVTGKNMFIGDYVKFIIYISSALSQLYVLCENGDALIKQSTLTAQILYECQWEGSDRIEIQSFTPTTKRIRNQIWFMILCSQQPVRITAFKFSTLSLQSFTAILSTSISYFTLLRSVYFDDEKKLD
Sequence (Q9VNB5 whole entry partner): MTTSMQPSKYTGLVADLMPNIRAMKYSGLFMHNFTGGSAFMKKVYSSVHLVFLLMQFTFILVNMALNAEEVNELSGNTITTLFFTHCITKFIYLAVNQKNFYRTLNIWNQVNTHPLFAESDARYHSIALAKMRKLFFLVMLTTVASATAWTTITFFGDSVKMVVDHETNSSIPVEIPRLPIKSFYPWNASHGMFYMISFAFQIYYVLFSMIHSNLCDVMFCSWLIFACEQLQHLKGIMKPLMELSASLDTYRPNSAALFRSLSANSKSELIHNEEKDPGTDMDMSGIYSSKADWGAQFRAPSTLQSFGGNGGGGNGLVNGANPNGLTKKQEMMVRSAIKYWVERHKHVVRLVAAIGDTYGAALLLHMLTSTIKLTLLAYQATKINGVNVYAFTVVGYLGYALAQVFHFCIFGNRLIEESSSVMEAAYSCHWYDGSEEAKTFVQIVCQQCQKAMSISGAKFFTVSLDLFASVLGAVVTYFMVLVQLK
Assay: GCaMP6s calcium imaging in Sf21 cells co-expressing Or13a and Orco, dose-response
propertyLabel: pEC50
Scale: negative log10 of molar concentration, which is what pEC50 denotes.

Noted for C=CC(O)CCCCC (stereo not shown) : its pEC50 reads 5.46

###

Biological target: Or56a (Drosophila melanogaster, UniProt Q9V8Y7)
Construct: with Orco
Sequence (Q9V8Y7 whole entry): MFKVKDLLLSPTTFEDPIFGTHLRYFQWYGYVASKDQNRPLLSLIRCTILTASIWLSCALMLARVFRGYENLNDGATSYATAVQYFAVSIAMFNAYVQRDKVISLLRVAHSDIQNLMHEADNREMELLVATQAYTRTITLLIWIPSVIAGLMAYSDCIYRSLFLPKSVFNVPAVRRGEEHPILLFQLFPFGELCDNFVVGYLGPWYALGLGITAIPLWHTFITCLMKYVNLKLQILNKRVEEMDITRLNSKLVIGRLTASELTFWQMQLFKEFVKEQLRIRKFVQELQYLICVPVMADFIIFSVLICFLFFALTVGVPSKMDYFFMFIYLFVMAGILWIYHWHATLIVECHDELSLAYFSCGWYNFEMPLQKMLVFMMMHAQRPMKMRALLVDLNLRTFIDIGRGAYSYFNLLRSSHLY
Sequence (Q9VNB5 whole entry partner): as the sequence (Q9VNB5 whole entry partner) above
Assay: GCaMP6s calcium imaging in Sf21 cells co-expressing Or56a and Orco, dose-response
Format: cell-based
propertyLabel: EC50 (nM)
Entry rule: numbers only, all in nM.

Entry CC1CCCC2(C)CCCCC12O (stereo not drawn) [geosmin, trans-1,10-dimethyl-trans-9-decalol] , Or56a (Drosophila melanogaster, UniProt Q9V8Y7) data, EC50 value: 630
